Data provenance is paper PMC2722949.

Target: Itk SH2 domain E308A/K309A double mutant (mouse (the paper calls its residue numbers 'mouse numbering'))
Assay: NMR titration
Where no end group is shown, it is not given here. [ ]: non-standard residue; d: D form. pY = N[C@@H](Cc1ccc(OP(=O)(O)O)cc1)C(=O)O

| BINDER | Kd / µM |
| --- | --- |
| AD[pY]EPP [phospho-SLP76 peptide (ADpYEPP)] | 480 |
